The reported measurements were obtained from patent US20250282885A1.

Property: raw competing-Ab binding signal; scope: individual binders
Molecular target: T1, human Sdc2 (human, UniProt P34741 19-144, limits assumed)
T1 construct: Antigen of the Octet tandem binning, loaded on biosensors at 100 nM; also called huSdc2; hSdc2
T1 sequence (P34741 19-144 limits assumed): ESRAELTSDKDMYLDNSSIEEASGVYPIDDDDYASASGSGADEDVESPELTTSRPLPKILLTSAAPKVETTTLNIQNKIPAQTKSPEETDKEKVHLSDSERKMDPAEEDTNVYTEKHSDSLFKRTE
Assay: Octet tandem binning; saturating Ab f7 19844-R3-P3-A12
Reply briefly: the number, and no unit.

6-N03-A (antibody, mouse IgG1, kappa, V domains shown) VH: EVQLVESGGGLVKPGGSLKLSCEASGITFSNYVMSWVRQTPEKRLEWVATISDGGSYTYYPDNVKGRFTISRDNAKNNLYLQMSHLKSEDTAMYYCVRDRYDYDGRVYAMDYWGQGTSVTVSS VL: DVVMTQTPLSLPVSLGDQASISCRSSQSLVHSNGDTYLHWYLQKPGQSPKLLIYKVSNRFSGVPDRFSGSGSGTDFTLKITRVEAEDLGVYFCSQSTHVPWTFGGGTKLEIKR | 0.179

Q. // query raw competing-Ab binding signal value for entry 19838-6-N03-A (antibody, IgG1, V domains shown) VH: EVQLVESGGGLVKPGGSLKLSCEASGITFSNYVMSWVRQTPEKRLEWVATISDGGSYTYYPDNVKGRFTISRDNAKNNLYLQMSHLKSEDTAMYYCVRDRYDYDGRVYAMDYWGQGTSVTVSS VL: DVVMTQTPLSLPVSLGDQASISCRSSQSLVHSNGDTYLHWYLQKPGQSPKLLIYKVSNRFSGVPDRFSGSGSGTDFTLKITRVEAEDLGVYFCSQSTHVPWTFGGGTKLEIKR
A. 0.162

Q. # query: raw competing-Ab binding signal of entry R4M-P3-A12 (antibody, human IgG1, kappa, V domains shown) VH: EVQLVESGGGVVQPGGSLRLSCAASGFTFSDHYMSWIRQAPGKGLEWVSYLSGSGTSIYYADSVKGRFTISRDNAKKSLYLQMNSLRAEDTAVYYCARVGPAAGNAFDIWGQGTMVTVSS VL: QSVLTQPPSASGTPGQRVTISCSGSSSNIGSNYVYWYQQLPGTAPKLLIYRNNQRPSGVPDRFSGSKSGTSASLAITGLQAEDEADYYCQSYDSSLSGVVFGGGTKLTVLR
A. -0.0178

Q. Entry R4M-P1-A10 (antibody, human IgG1, kappa, V domains shown) VH: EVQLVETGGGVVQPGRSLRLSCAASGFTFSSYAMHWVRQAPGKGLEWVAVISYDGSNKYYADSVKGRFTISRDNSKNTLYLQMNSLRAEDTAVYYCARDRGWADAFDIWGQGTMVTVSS VL: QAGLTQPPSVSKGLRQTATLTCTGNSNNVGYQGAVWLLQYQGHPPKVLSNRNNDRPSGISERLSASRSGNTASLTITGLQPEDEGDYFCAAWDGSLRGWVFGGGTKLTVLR : reported raw competing-Ab binding signal = ?
A. 0.246

Q. GET /values?readout=raw competing-Ab binding signal&item= 8-G17-A (antibody, V domains shown, PentaMice hybridoma clone, made recombinantly in CHO cells) VH: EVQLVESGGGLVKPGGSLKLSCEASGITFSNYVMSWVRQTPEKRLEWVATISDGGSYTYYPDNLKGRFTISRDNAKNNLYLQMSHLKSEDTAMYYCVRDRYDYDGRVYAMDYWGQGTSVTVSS VL: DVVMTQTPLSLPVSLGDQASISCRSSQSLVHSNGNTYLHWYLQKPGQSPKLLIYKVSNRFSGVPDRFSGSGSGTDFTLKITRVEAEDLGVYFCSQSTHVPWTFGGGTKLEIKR
A. 0.636

Q. Sample R3-P3-C11 (antibody, human IgG1, kappa, V domains shown, human IgG1 kappa from the phage campaign) VH: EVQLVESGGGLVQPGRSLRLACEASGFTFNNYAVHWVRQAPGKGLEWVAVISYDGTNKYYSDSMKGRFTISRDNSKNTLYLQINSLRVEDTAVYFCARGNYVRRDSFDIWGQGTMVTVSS VL: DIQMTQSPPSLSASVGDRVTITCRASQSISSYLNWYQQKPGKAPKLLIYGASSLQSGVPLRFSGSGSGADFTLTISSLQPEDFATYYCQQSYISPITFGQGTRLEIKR — what was its raw competing-Ab binding signal?
A. -0.0267
